B1: library; numbered along this chain (parent)
chain: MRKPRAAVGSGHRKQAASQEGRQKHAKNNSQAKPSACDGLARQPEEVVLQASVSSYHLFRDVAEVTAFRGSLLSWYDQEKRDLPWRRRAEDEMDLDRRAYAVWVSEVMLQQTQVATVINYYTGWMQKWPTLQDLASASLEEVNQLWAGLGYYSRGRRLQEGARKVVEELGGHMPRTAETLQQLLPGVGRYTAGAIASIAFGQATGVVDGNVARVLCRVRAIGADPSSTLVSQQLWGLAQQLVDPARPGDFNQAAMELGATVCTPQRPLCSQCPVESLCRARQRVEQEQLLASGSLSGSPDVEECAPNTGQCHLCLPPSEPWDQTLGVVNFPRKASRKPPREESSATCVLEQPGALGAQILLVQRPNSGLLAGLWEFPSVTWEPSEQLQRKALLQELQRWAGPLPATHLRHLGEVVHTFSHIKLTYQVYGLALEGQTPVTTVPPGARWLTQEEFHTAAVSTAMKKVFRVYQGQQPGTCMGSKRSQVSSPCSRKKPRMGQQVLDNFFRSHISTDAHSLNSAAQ

# Variants of: B1
# test_summary: 8OG:A repair function score (normalized; synonymous = 0, nonsense = -1) (normalized log-likelihood score); higher = more repair activity (WT-like);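 note: cells sorted at 72 h after reporter transfection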
# condition_parameters: with 8OG:A DNA repair reporter (GFP) in HEK-293 MUTYH KO cells
Below, each of the variants is paired with its reported 8OG:A repair function score value.
A bare number is all that is needed in reply.

Sample records with 8OG:A repair function score:
- mutation_descriptor: "G429Y"
  reported_value: -0.0542
- mutation_descriptor: "P320G"
  reported_value: 0.00385
- mutation_descriptor: "E160R"
  reported_value: -0.136

Inquiry: Recorded 8OG:A repair function score of "A461S" , please.
Reply text: -0.119

Values compiled from the supplement of paper PMC11908140.
